Target Desc: T1, EsCas13d, nuclease-dead (Eubacterium siraeum, UniProt B0MS50, R295A;H300A;R849A;H854A)
T1 sequence: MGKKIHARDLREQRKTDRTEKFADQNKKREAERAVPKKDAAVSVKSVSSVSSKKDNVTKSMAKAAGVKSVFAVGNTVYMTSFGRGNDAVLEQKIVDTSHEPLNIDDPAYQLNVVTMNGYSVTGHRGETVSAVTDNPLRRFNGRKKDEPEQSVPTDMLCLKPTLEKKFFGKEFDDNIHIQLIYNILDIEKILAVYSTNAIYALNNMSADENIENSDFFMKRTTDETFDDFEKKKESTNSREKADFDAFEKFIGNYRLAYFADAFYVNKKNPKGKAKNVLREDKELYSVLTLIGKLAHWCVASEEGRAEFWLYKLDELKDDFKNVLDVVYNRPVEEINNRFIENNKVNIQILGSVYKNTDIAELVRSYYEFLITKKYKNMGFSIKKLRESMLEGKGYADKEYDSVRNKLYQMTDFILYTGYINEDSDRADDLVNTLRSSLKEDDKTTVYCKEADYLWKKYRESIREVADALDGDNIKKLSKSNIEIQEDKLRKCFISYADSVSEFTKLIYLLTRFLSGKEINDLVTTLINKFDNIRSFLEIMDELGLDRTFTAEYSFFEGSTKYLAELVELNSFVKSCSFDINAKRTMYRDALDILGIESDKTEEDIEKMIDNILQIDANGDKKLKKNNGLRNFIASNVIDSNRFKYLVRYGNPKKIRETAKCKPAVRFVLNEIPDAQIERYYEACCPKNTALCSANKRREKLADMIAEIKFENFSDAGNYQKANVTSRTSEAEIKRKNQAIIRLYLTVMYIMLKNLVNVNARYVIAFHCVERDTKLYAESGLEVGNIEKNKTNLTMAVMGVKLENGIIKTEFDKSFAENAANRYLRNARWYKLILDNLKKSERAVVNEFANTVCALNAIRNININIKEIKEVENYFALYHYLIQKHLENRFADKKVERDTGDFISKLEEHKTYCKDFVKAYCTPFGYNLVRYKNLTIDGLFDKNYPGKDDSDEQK
Method Summary: crRNA (strand 1, pre-loaded); Mg2+; 40 mM Tris-HCl pH 7.5, 150 mM NaCl, 6 mM MgCl2, 1 mM DTT, 0.1% Tween-20, 0.2 mg/ml BSA; 25 C; 10 min per concentration, then washed
Experimental Parameters: tags: His6-TwinStrep-SUMO cleaved; N-terminal SNAP kept (SNAP-Surface 488); label: 3' end held by stalled T7 RNA polymerase
Please provide measured Kd for the entries that follow.
Numbers only, in nM.

binder="target 2 MT 5'PFS GCA 3'PFS CAC (mixed) RNA 1: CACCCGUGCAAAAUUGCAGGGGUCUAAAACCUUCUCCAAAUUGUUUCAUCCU RNA 2: GGGAAUGGAUCCACAUCUACGAAUUCGCAAGGAUGAAACAAUUUGGAGAAGCACAGAUCGGAAGAGCACACGU" reported_endpoint=Kd units=nM reported_measurement=7.5

Now examine the next entry.
Data request, read-out Kd, for target 1 G5C,C7G (mixed) RNA 1: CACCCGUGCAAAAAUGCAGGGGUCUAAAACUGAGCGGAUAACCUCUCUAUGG RNA 2: GGGAAUGGAUCCACAUCUACGAAUUCGUACCAUAGAGAGGUUAUGCCCUCACCGAGAUCGGAAGAGCACACGU
15.8
